assayText: yeast display, Sf9 membrane polyspecificity reagent, FACS + sequencing; frameworks hold sequencing errors
reportedEndpoint: polyreactivity (PSR sort gate)

Solved cases (4 shown):
seqString: QVQLVESGGGLGQAGGRLRLTCAASGFTFRPYDMGWYRQAPGKERELVAVIIGGDSTNYADSVQGRFTISRDNAKNTVYLQMNSLKPEDTAVYYCAADYIDRVGWMDYWGQGTQVTVSS
polyreactivity (PSR sort gate): low polyreactivity
--
seqString: QVQLVESGGGLVQAGGSLRLSCAASGSIFGYNAMGWYRQAPGKERELVAAISGGGGTYYADSVKGRFTISRDNAKNTVYLQMNSLKPEDTAVYYCATDRGHKWLFYGTYYRYEYWGQGTQVTVSS
polyreactivity (PSR sort gate): low polyreactivity
--
seqString: QVQHVESGGGLVQAGGSLRLSCAASGRIIWQNAMGWDRQAPGKERELVAAISSRGGTTYYADSVKGRFTISRDNAKNTVYLQINSLKPEDTAVYYCAKEVWRHYLNLYDYWGQGTQVTVSS
polyreactivity (PSR sort gate): low polyreactivity
--
seqString: QVQLVESGGGLVQAGGSLRLSCAASGSILEIYAMGWYRQAPGKESEFVASISWDVSSTYYADSVKGRFTISRDNAKNTVYLQMNSLKPEDTAVYYCATSLVWGLYDWYYDLSAAFDYWGQGTQVTVSS
polyreactivity (PSR sort gate): low polyreactivity

Data request: Read the entry `QVQLVESGGRLVQAGGRLPLSCAASGSIFTGNAMGWYRQAPGKERELVAAITQRGGRTYYADSVKGRFTISRDNSKNTVYLQMNSLKPEDTAVYYCAADPPGYVYGKRYYWGQGTQVTVSS` and write its reported polyreactivity (PSR sort gate).
Data returned: high polyreactivity

Data request: Read the entry `QVQLEESGGGLVQAGGSLRLSCAASGSTFWVYVMGWYRQAPGKERELVATIRWSTSSTYADSVKGRFTISRDNAKNTVYLQMNILKPEDTAVYYCNTYPRGNWGNFVEQDYDYWGQGTQVTVSS` and write its reported polyreactivity (PSR sort gate).
Data returned: low polyreactivity

Data request: Read the entry `QVQLVESGGGLVQAGGSLRLSCAASGRTVYSYAMGWYRQAPGKERELVAAISYTGASTFYADSVKGRFTISRDNAKNTVYLQMNSLKPEDTAVYYCAAESQPSYGETDEYWGQGTQVTVSS` and write its reported polyreactivity (PSR sort gate).
Data returned: high polyreactivity

Data request: Read the entry `QVQLVESGGGLVQAGGSLRLSCAASGLIFYRYAMGWYRQAPGTERELVAVITRSGCNTNYADSVKGRFTISRDNAKNTVYLQMNSLKPEDTEVYYCDTRGIWKKVPYYYWGQGTQVTVSS` and write its reported polyreactivity (PSR sort gate).
Data returned: low polyreactivity

Data request: Read the entry `QVQLVESGGGLVQAGGSLRLSCAASGSIFLVYAMGWYRQAPGKERELVAAIDWSDTDTYYADSVKGRFTISRDNAKNTFYLQMNSLKPEDTAVYYCAADHVGVDFEYWGQGTQVTVSS` and write its reported polyreactivity (PSR sort gate).
Data returned: low polyreactivity

Data request: Read the entry `QVQLVESGGGVVQAGGSLRLSCAASGSFFYVYAMGWYRQAPGKERELVAAITATYYADSVKGRFTISRDNAKNTVYLQMNSLKPEDTAVYYCAAAPWTYWEDYDFWGQGTQVTVSS` and write its reported polyreactivity (PSR sort gate).
Data returned: low polyreactivity

Data request: Read the entry `QVQLVESGGGLVQAGGSLRLSCAASGSTFFDYAMGWYRKAPGKERELVAAISRSGDTNYADSVKGRFTISRDNAKNTVYLQMKSLKPEDTAVYYCAKDWAYRRHWVGFYYWGQGTQVTVSS` and write its reported polyreactivity (PSR sort gate).
Data returned: low polyreactivity

Data request: Read the entry `QVHLVESGGGLVQAGGSLRLSCAASGIIFGHYDMGWYRQAPGKERELVAAITFTGDSTYADSVKGRFTISRDNAMNTVYLQMNSLKPEDTAVYYCNASVKPSNVWSRGYDYWGQGTQVTVSS` and write its reported polyreactivity (PSR sort gate).
Data returned: low polyreactivity

Data request: Read the entry `QVQLVESGGGLVQAGGSLRLSCAASGRIFIVYPMGWYRQAPGKERELVATITRGGSTNYADSVKGRFTISRDNAKNTVYLQMNSLKPEDTAVYYCAKGWTNRYPWPGRFRTLYDYWGQGTQVTVSS` and write its reported polyreactivity (PSR sort gate).
Data returned: low polyreactivity
